Overview of recorded inhibition at 20 µM for various compounds
Target: Rho-A (Homo sapiens, UniProt P61586)
Sequence (P61586 1-190): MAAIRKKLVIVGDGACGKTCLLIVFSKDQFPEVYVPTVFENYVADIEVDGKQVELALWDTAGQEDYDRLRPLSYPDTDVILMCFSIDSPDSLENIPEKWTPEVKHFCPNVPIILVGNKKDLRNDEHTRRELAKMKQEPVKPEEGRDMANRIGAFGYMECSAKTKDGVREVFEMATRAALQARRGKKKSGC
Experiment: Ras GTP binding domain inhibition assay (Cy3-GTP/Cy5-GTP competition)
Details: with SOS, read-out: Rho-A + SOS: % inh.

Solved entries:
{"Compound": "COC1CCN(c2nc(-c3nccn3C)nc3sc(-c4ccc(N)nc4C)c(-c4ccccc4)c23)C1 (stereo not shown) [drawing 953]", "inhibition at 20 µM": "26 to 50%"}
{"Compound": "Cn1ccc(-c2sc3nc(-c4nccn4C)nc(NCC4CCOC4)c3c2-c2ccccc2)n1 (stereo not shown) [drawing 996]", "inhibition at 20 µM": "0%"}
{"Compound": "COC1CCN(c2nc(-c3nccn3C)nc3sc(-c4cnc(C5CC5)o4)c(-c4ccccc4)c23)C1 (stereo not shown) [drawing 977]", "inhibition at 20 µM": "51 to 75%"}

Given COCC(C)Nc1nc(-c2nccn2C)nc2sc(-c3ccn(C)n3)c(-c3ccc(OC)cc3)c12 (stereo not shown) [drawing 1004] , state its recorded inhibition at 20 µM. 1 to 25%
